# MEASURED TARGET: T1, AFP158/HLA-A*02:01 complex (human)
# T1 construct: flowed as analyte in SPR
# PROCEDURE TEXT: SPR, crude scFv captured, pMHC analyte;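 further: pMHC analyte injected at three concentrations, association phase of one hundred seconds, then running buffer for dissociation, rates fitted from both curves, KD derived from the rates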
Each entry below carries its reported koff.
QUANTITY MEASURED: koff (s⁻¹)

AS170036 VL1VH1-56N98I (scFv, also called 05-AS170036 VL1VH1-56N98I) scFv: QSALTQPRSVSGSPGQSVTISCAGTSSDVGSENYVSWYQQHPGKAPKLMIYQVNKRASGVPDRFSGSKSGNTASLTISGLQAEDEADYYCASYRSSDINIVFGGGTKLTVLGGGGSGGGGSGGGGSEVQLVESGGGLVQPGGSLRLSCAASGFTFSSYAMSWVRQAPGKGLEWVSTINSGTNSPYYADSVKGRFTISRDNSKNTLYLQMNSLRAEDTAVYYCAKNFFDGSWFLGPPAMDYWGQGTLVTVSSHHHHHH; 0.0056
AS170036 VL1VH1-57M108D (scFv, also called 29-AS170036 VL1VH1-57M108D) scFv: QSALTQPRSVSGSPGQSVTISCAGTSSDVGSENYVSWYQQHPGKAPKLMIYQVNKRASGVPDRFSGSKSGNTASLTISGLQAEDEADYYCASYRSSDHNIVFGGGTKLTVLGGGGSGGGGSGGGGSEVQLVESGGGLVQPGGSLRLSCAASGFTFSSYAMSWVRQAPGKGLEWVSTINSGTGMPYYADSVKGRFTISRDNSKNTLYLQMNSLRAEDTAVYYCAKNFFDGSWFLDPPAMDYWGQGTLVTVSSHHHHHH; 0.0055
AS170036 VL1VH1-57M108S (scFv, also called 30-AS170036 VL1VH1-57M108S) scFv: QSALTQPRSVSGSPGQSVTISCAGTSSDVGSENYVSWYQQHPGKAPKLMIYQVNKRASGVPDRFSGSKSGNTASLTISGLQAEDEADYYCASYRSSDHNIVFGGGTKLTVLGGGGSGGGGSGGGGSEVQLVESGGGLVQPGGSLRLSCAASGFTFSSYAMSWVRQAPGKGLEWVSTINSGTGMPYYADSVKGRFTISRDNSKNTLYLQMNSLRAEDTAVYYCAKNFFDGSWFLSPPAMDYWGQGTLVTVSSHHHHHH; 0.0067
